system: HIV-1 (IIIB); test: microbe, parasite or virus in culture; assay type: cell-based; conditions: Human immunodeficiency virus 1, IIIB, MT4, 120 h, HIV-1 (IIIB) in MT-4 cells, 5 days incubation, Cell Titer Glo; read-out: MT4 EC50
Metric name: pEC50
Please report pEC50 as the negative decimal logarithm of the molar concentration, giving only the number.

Some compounds with known pEC50 results, for comparison:
1. CCN1O[C@@]2(CC[C@H](C)N3C[C@H]2n2cc(C(=O)NCc4c(F)cc(F)cc4F)c(=O)c(O)c2C3=O)CC1=O [Example 157]: 8.96
2. C[C@H]1CC[C@]2(CC(=O)N(Cc3cccc(C(F)(F)F)c3)O2)[C@H]2CN1C(=O)c1c(O)c(=O)c(C(=O)NCc3c(F)cc(F)cc3F)cn12 [Example 111]: 8.64
3. COC1=NO[C@@]2(CC[C@H](C)N3C[C@H]2n2cc(C(=O)NCc4c(F)cc(F)cc4F)c(=O)c(O)c2C3=O)[C@H]1O [Example 84]: 8.80
4. C[C@H]1CC[C@]2(CC(=O)N(CCc3ccccc3)O2)[C@H]2CN1C(=O)c1c(O)c(=O)c(C(=O)NCc3c(F)cc(F)cc3F)cn12 [Example 105]: 8.92

Read the entry C[C@H]1CC[C@]2(CC(=O)N(Cc3cccnc3)O2)[C@H]2CN1C(=O)c1c(O)c(=O)c(C(=O)NCc3c(F)cc(F)cc3F)cn12 [Example 160] and write its reported pEC50.
8.82

Find the measured pEC50 of C[C@H]1CC[C@@]2(CO2)[C@H]2CN1C(=O)c1c(O)c(=O)c(C(=O)NCc3c(F)cc(F)cc3F)cn12 [Example 166] and report it.
9.05

----------
assay: in vitro; details: human, uninfected MT-4 cells
Property: CC50 at 5 days; scope: individual compounds
Record the value in µM, omitting the unit from your answer.

# example entries with known answers
1) C[C@@H]1OC[C@]2(CC[C@H](C)N3C[C@H]2n2cc(C(=O)NCc4c(F)cc(F)cc4F)c(=O)c(O)c2C3=O)O1: 20.2
2) COC1=NO[C@@]2(CCCN3C[C@H]2n2cc(C(=O)NCc4c(F)cc(F)cc4F)c(=O)c(O)c2C3=O)C1: 31.4
3) CC1=NO[C@@]2(CC[C@H](C)N3C[C@H]2n2cc(C(=O)NCc4ccc(F)cc4F)c(=O)c(O)c2C3=O)[C@H]1O: 47

Recall and state the measured CC50 at 5 days for C[C@H]1CCC2(OCCO2)[C@H]2CN1C(=O)c1c(O)c(=O)c(C(=O)NCc3ccc(F)cc3F)cn12 .
27.4

Output CC50 at 5 days of [2H]C1C(OC)=NO[C@@]12CC[C@H](C)N1C[C@H]2n2cc(C(=O)NCc3c(F)cc(F)cc3F)c(=O)c(O)c2C1=O (stereo partly drawn)
16.2

Output CC50 at 5 days of COC1=NO[C@@]2(CC[C@H](C)N3C[C@H]2n2cc(C(=O)NCc4c(F)cc(F)cc4F)c(=O)c(O)c2C3=O)C1
19.5

Write down CC50 at 5 days measured for item C[C@H]1CC[C@]2(CCCN2)[C@H]2CN1C(=O)c1c(O)c(=O)c(C(=O)NCc3c(F)cc(F)cc3F)cn12
38

----------
pEC50: recorded values
test system: pLAI reporter virus; assay: microbe, parasite or virus in culture; type: cell-based, HIV; settings: Human immunodeficiency virus 1, MT4, 72 h, read-out: RLUC CCM EC50
The read-out pEC50 is expressed as -log10 of concentration in moles per litre.

The cases that follow already have their pEC50 on record.
1. CC1=NO[C@@]2(CC[C@@H](C)N3C[C@H]2n2cc(C(=O)NCc4c(F)cc(F)cc4F)c(=O)c(O)c2C3=O)C1: 9.30
2. COC[C@@H]1CO[C@]2(CC[C@H](C)N3C[C@H]2n2cc(C(=O)NCc4c(F)cc(F)cc4F)c(=O)c(O)c2C3=O)O1 (single isomer, unassigned) [168 (peak 2)]: 9.22
3. C[C@H]1CC[C@]2(CC(CF)=NO2)[C@H]2CN1C(=O)c1c(O)c(=O)c(C(=O)NCc3ccc(F)cc3F)cn12: 9.70
4. C[C@H]1CC[C@]2(CC(N3CCC3)=NO2)[C@H]2CN1C(=O)c1c(O)c(=O)c(C(=O)NCc3c(F)cc(F)cc3F)cn12: 9.40

Give a short answer stating reported pEC50 for CO[C@@H]1CS[C@@]2(CC[C@H](C)N3C[C@H]2n2cc(C(=O)NCc4c(F)cc(F)cc4F)c(=O)c(O)c2C3=O)O1 (single isomer, unassigned) [170 (peak 4)] .
9.52

Note down pEC50 recorded for COC[C@@H]1CO[C@@]2(CC[C@H](C)N3C[C@H]2n2cc(C(=O)NCc4c(F)cc(F)cc4F)c(=O)c(O)c2C3=O)O1 (single isomer, unassigned) [168 (peak 1)]
9.40

Output pEC50 of CC1=NN(c2ccccc2)C2(CC[C@H](C)N3C[C@H]2n2cc(C(=O)NCc4c(F)cc(F)cc4F)c(=O)c(O)c2C3=O)C1 (single isomer, unassigned)
8.89

Quick one: give measured pEC50 for C[C@H]1CC[C@]2(CC(=O)N(Cc3cccnc3)O2)[C@H]2CN1C(=O)c1c(O)c(=O)c(C(=O)NCc3c(F)cc(F)cc3F)cn12
8.80

Answer with the recorded pEC50 of CC1=NO[C@@]2(CC[C@H](C)N3C[C@H]2n2cc(C(=O)NCc4ccc(F)cc4F)c(=O)c(O)c2C3=O)O1 only.
9.70

Write down pEC50 measured for item C[C@H]1CC[C@@]2(CCO2)[C@H]2CN1C(=O)c1c(O)c(=O)c(C(=O)NCc3c(F)cc(F)cc3F)cn12
8.96

Please list pEC50 recorded for the molecule C[C@H]1CC[C@@]2(OC[C@@H](Cc3ccccc3)O2)[C@H]2CN1C(=O)c1c(O)c(=O)c(C(=O)NCc3c(F)cc(F)cc3F)cn12 (single isomer, unassigned) [169 (peak 1)]
8.85

Hello, please tell me recorded pEC50 for this one: C[C@H]1CC[C@]2(CC(C(F)(F)F)=NO2)[C@H]2CN1C(=O)c1c(O)c(=O)c(C(=O)NCc3c(F)cc(F)cc3F)cn12
9.70

Answer with the recorded pEC50 of C[C@H]1CC[C@]2(CC(CF)=NO2)[C@H]2CN1C(=O)c1c(O)c(=O)c(C(=O)NCc3ncc(F)c(Cl)c3F)cn12 only.
9.10

Consider the molecule COC1=NO[C@@]2(CC[C@H](C)N3C[C@H]2n2cc(C(=O)NCc4c(F)cc(F)cc4F)c(=O)c(O)c2C3=O)[C@@H]1F and give its recorded pEC50.
9.52

Retrieve pEC50 measured for COC1=NO[C@@]2(CC[C@@H](C)N3C[C@H]2n2cc(C(=O)NCc4c(F)cc(F)cc4F)c(=O)c(O)c2C3=O)C1 and print it.
9.30

Query pEC50 for CC1=NO[C@@]2(CC[C@H](C)N3C[C@H]2n2cc(C(=O)NCc4ccc(F)cc4F)c(=O)c(O)c2C3=O)N1
8.96

----------
system: HIV-1 (IIIB); test: microbe, parasite or virus in culture; format: cell-based; details: Human immunodeficiency virus 1, IIIB, MT4, 120 h, HIV-1 (IIIB) in MT-4 cells, 5 days incubation, Cell Titer Glo; read-out: MT4 EC50
Here the recorded pEC50 is given for each entry.
pEC50 field: float, defined as -log10 of concentration (mol/L).

1) C[C@H]1CC[C@]2(CC(=O)N(Cc3ccc4scnc4c3)O2)[C@H]2CN1C(=O)c1c(O)c(=O)c(C(=O)NCc3c(F)cc(F)cc3F)cn12 [Example 113]: 9.15
2) C[C@H]1CC[C@@]2(CC(C#CC(C)(C)S(C)(=O)=O)=NO2)[C@H]2CN1C(=O)c1c(O)c(=O)c(C(=O)NCc3c(F)cc(F)cc3F)cn12 [Example 80]: 7.09
3) C[C@H]1CC[C@@]2(ON=C(CF)[C@@H]2O)[C@H]2CN1C(=O)c1c(O)c(=O)c(C(=O)NCc3ccc(F)cc3F)cn12 [Example 89]: 8.89
4) C[C@H]1CC[C@]2(CC(=O)N(Cc3nc4ccccc4n3C)O2)[C@H]2CN1C(=O)c1c(O)c(=O)c(C(=O)NCc3c(F)cc(F)cc3F)cn12 [Example 163]: 8.82

Now for another entry.
State the measured pEC50 (HIV-1 (IIIB)) of CC1=NO[C@@]2(CC[C@H](C)N3C[C@H]2n2cc(C(=O)NCc4ccc(F)c(Cl)c4F)c(=O)c(O)c2C3=O)C1 [Example 6]
9.30

----------
system: HIV-1 (IIIB); test: microbe, parasite or virus in culture; format: cell-based; details: Human immunodeficiency virus 1, IIIB, MT4, 120 h, HIV-1 (IIIB) in MT-4 cells, 5 days incubation, Cell Titer Glo; read-out: MT4 EC50
API: label(entry) gives TRUE if the entry's EC50 is strictly smaller than 3 nM; on equality or larger values it gives FALSE.

Consider C[C@H]1CC[C@@]2(ON=C(CF)[C@@H]2O)[C@H]2CN1C(=O)c1c(O)c(=O)c(C(=O)NCc3c(F)cc(F)cc3F)cn12 [Example 88] . Does its EC50 lie strictly below 3 nM?
TRUE

# TODO verify EC50 < 3 nM strictly for this compound: C[C@H]1CC[C@]2(CC(=O)N(Cc3nc4ccccc4[nH]3)O2)[C@H]2CN1C(=O)c1c(O)c(=O)c(C(=O)NCc3c(F)cc(F)cc3F)cn12 [Example 162]
FALSE

Check if EC50 falls below 3 nM for CC1=NO[C@]2(CC[C@H](C)N3C[C@H]2n2cc(C(=O)NCc4ccc(F)cc4F)c(=O)c(O)c2C3=O)C1C (stereo partly drawn) [Example 23] .
TRUE

Consider CC1=NN(c2ccccc2)C2(CC[C@H](C)N3C[C@H]2n2cc(C(=O)NCc4c(F)cc(F)cc4F)c(=O)c(O)c2C3=O)C1 (single isomer, unassigned) [Example 90] . Does its EC50 lie strictly below 3 nM?
FALSE

Would you kindly verify if EC50 of CC1=NO[C@@]2(CC[C@H](C)N3C[C@H]2n2cc(C(=O)NCc4ccc(F)cc4F)c(=O)c(O)c2C3=O)[C@H]1F (single isomer, unassigned) [Example 27 (peak 1)] is strictly less than 3 nM?
TRUE

Problem: For the compound COC1=NO[C@@]2(CC[C@H](C)N3C[C@H]2n2cc(C(=O)NCc4c(F)cc(F)cc4F)c(=O)c(O)c2C3=O)[C@H]1F [Example 87] , is EC50 under 3 nM?
TRUE

The measurements presented in this section are drawn from patent US20250115620A1.
